System: NCI-H522
Assay method text: Cytotoxicity against human NCI-H522 cells assessed as growth inhibition after 48 hrs by sulforhodamine B assay
Type: functional
Cond: NCI-H522, 48 h
Cut-off 3 µM on TGI, inclusive. At or above means Y; below means N.

INSERT INTO measurements (smiles_string, target_of_assay, discrete_label) VALUES
  ('COc1ccc(C(=O)/C=C/c2cc(-c3cc(OC)c(OC)c(OC)c3)n[nH]2)cc1', 'NCI-H522', 'Y');

Prompt line: Is TGI at least 3 µM? Consider COc1cc(-c2cc(/C=C/C(=O)c3ccc4c(c3)OCO4)[nH]n2)cc(OC)c1OC
Response line: N

----------
Tested on: A549
Assay method text: Cytotoxicity against human A549/ATCC cells assessed as cell growth at 0.01 uM after 48 hrs by sulforhodamine B assay relative to control
Type: functional
Cond: A549, 48 h, read-out: Activity
Parameter: growth at 0.01 µM. Scope: all listed entries.
Form field: result (number plus unit)

INSERT INTO measurements (smiles_string, experimental_result) VALUES
  ('COc1cc(C(=O)/C=C/c2cc(-c3ccc4c(c3)OCO4)n[nH]2)cc(OC)c1OC', '100%');

Prompt line: Value lookup for growth at 0.01 µM; key = COc1cc2c(cc1OC)C(=O)/C(=C/c1cc(-c3ccc4c(c3)OCO4)n[nH]1)C2
Response line: 98%

Prompt line: Which measured growth at 0.01 µM value corresponds to COc1ccc(-c2cc(/C=C/C(=O)c3ccc(N)cc3)[nH]n2)cc1 ?
Response line: 101%

Prompt line: // growth at 0.01 µM lookup, key: COc1ccc(C(=O)/C=C/c2cc(-c3ccc(OC)c(OC)c3)n[nH]2)cc1OC
Response line: 97%

Prompt line: Form field: reported growth at 0.01 µM of COc1cc(C(=O)/C=C/c2cc(-c3cc(OC)c(OC)c(OC)c3)n[nH]2)cc(OC)c1OC
Response line: 97%

----------
Listing of recorded growth at 10 µM by entry.
System: MCF7
Assay method text: Cytotoxicity against human MCF7 cells assessed as cell growth at 10 uM after 48 hrs by sulforhodamine B assay relative to control
Type: functional
Cond: MCF7, 48 h, read-out: Activity
Write it as a number; the unit % goes unstated.

INSERT INTO assay_data (smiles_string, target_of_assay, measure_unit, experimental_result) VALUES
  ('COc1ccc(C(=O)/C=C/c2cc(-c3ccc(OC)c(OC)c3)n[nH]2)cc1OC', 'MCF7', '%', -5),
  ('COc1cc(-c2cc(/C=C/C(=O)c3ccc(F)c(F)c3)[nH]n2)cc(OC)c1OC', 'MCF7', '%', 2),
  ('COc1cc(-c2cc(/C=C/C(=O)c3ccc(N)cc3)[nH]n2)cc(OC)c1OC', 'MCF7', '%', -24),
  ('COc1cc(-c2cc(/C=C/C(=O)c3ccc4c(c3)OCO4)[nH]n2)cc(OC)c1OC', 'MCF7', '%', -1),
  ('COc1ccc(-c2cc(/C=C/C(=O)c3ccc(N)cc3)[nH]n2)cc1', 'MCF7', '%', -30);

Prompt line: Consider the compound shown here: COc1ccc(C(=O)/C=C/c2cc(-c3ccc4c(c3)OCO4)n[nH]2)cc1OC What is its recorded growth at 10 µM?
Response line: 14

----------
Test system: SR
Assay method text: Cytotoxicity against human SR cells assessed as cell growth at 0.1 uM after 48 hrs by sulforhodamine B assay relative to control
Assay type: functional
Cond: read-out: Activity
Measurement type: growth at 0.1 µM (%)
Please state the figure in %; there is no need to write the unit.

INSERT INTO results (smiles_string, target_of_assay, measure_unit, experimental_result) VALUES
  ('COc1cc(-c2cc(/C=C/C(=O)c3ccc(N)cc3)[nH]n2)cc(OC)c1OC', 'SR', '%', 87),
  ('COc1ccc(-c2cc(/C=C/C(=O)c3ccc(N)cc3)[nH]n2)cc1', 'SR', '%', 98),
  ('COc1ccc(C(=O)/C=C/c2cc(-c3ccc(OC)c(OC)c3)n[nH]2)cc1OC', 'SR', '%', 81),
  ('COc1cc2c(cc1OC)C(=O)/C(=C/c1cc(-c3ccc4c(c3)OCO4)n[nH]1)C2', 'SR', '%', 98);

Prompt line: # lookup: growth at 0.1 µM of COc1cc(-c2cc(/C=C/C(=O)c3ccc(F)c(F)c3)[nH]n2)cc(OC)c1OC
Response line: 106

----------
# key: entry, value: growth at 0.1 µM
Tested on: RXF 393
Assay method text: Cytotoxicity against human RXF393 cells assessed as cell growth at 0.1 uM after 48 hrs by sulforhodamine B assay relative to control
Format: functional
Cond: RXF 393, 48 h, read-out: Activity
Just the number please, in %, no unit attached.

Here is how some compounds turned out for growth at 0.1 µM.
INSERT INTO results (smiles_string, measure_unit, experimental_result) VALUES
  ('COc1ccc(C(=O)/C=C/c2cc(-c3ccc4c(c3)OCO4)n[nH]2)cc1OC', '%', 97),
  ('COc1cc2c(cc1OC)C(=O)/C(=C/c1cc(-c3ccc4c(c3)OCO4)n[nH]1)C2', '%', 82),
  ('COc1ccc(C(=O)/C=C/c2cc(-c3cc(OC)c(OC)c(OC)c3)n[nH]2)cc1OC', '%', 100),
  ('COc1ccc(C(=O)/C=C/c2cc(-c3cc(OC)c(OC)c(OC)c3)n[nH]2)cc1', '%', 90),
  ('COc1ccc(-c2cc(/C=C/C(=O)c3ccc(OC)c(OC)c3)[nH]n2)cc1', '%', 93);

Consider the additional compound presented here.
Prompt line: Which growth at 0.1 µM value belongs to COc1cc(-c2cc(/C=C/C(=O)c3ccc(Cl)c(Cl)c3)[nH]n2)cc(OC)c1OC ?
Response line: 96

----------
growth at 100 µM reference
Tested on: T47D
Assay method text: Cytotoxicity against human T47D cells assessed as cell growth at 100 uM after 48 hrs by sulforhodamine B assay relative to control
Format: functional
Cond: read-out: Activity
// note: answer is a bare numeric in %

For orientation, consider the following solved cases.
INSERT INTO results (smiles_string, measure_unit, experimental_result) VALUES
  ('COc1cc(-c2cc(/C=C/C(=O)c3ccc(F)c(F)c3)[nH]n2)cc(OC)c1OC', '%', -11),
  ('COc1cc(-c2cc(/C=C/C(=O)c3ccc(N)cc3)[nH]n2)cc(OC)c1OC', '%', -47),
  ('COc1cc(C(=O)/C=C/c2cc(-c3ccc4c(c3)OCO4)n[nH]2)cc(OC)c1OC', '%', -87);

Turning now to a further molecule:
Prompt line: Quick check: growth at 100 µM of COc1cc(C(=O)/C=C/c2cc(-c3cc(OC)c(OC)c(OC)c3)n[nH]2)cc(OC)c1OC ?
Response line: -92

----------
Test system: SW-620
Assay method text: Cytotoxicity against human SW620 cells assessed as cell growth at 1 uM after 48 hrs by sulforhodamine B assay relative to control
Type: functional
Cond: SW-620, 48 h, read-out: Activity
Items are presented alongside their recorded growth at 1 µM.
Give the number; % is assumed, so skip it.

Examples with their reported growth at 1 µM follow.
INSERT INTO measurements (smiles_string, target_of_assay, experimental_result) VALUES
  ('COc1ccc(-c2cc(/C=C/C(=O)c3ccc(N)cc3)[nH]n2)cc1OC', 'SW-620', 95),
  ('COc1ccc(-c2cc(/C=C/C(=O)c3ccc(OC)c(OC)c3)[nH]n2)cc1', 'SW-620', 65),
  ('COc1ccc(C(=O)/C=C/c2cc(-c3cc(OC)c(OC)c(OC)c3)n[nH]2)cc1OC', 'SW-620', 70);

Prompt line: Reported growth at 1 µM, compound COc1ccc(-c2cc(/C=C/C(=O)c3ccc(N)cc3)[nH]n2)cc1 : ____
Response line: 72

Prompt line: I have this compound here, COc1cc2c(cc1OC)C(=O)/C(=C/c1cc(-c3ccc4c(c3)OCO4)n[nH]1)C2 , and I need its recorded growth at 1 µM.
Response line: 66

----------
Tested on: HCC 2998
Assay method text: Cytotoxicity against human HCC2998 cells assessed as cell growth at 1 uM after 48 hrs by sulforhodamine B assay relative to control
Type: functional
Cond: HCC 2998, 48 h, read-out: Activity
Recorded growth at 1 µM for the following molecules
Entry rule: numbers only, all in %.

INSERT INTO results (smiles_string, measurement_type, experimental_result) VALUES
  ('COc1ccc(-c2cc(/C=C/C(=O)c3ccc(N)cc3)[nH]n2)cc1', 'growth at 1 µM', 100),
  ('COc1ccc(C(=O)/C=C/c2cc(-c3cc(OC)c(OC)c(OC)c3)n[nH]2)cc1OC', 'growth at 1 µM', 116),
  ('COc1ccc(C(=O)/C=C/c2cc(-c3ccc4c(c3)OCO4)n[nH]2)cc1OC', 'growth at 1 µM', 104),
  ('COc1cc(-c2cc(/C=C/C(=O)c3ccc4c(c3)OCO4)[nH]n2)cc(OC)c1OC', 'growth at 1 µM', 106);

Prompt line: Request - read-out growth at 1 µM | tested on HCC 2998 | molecule COc1cc(C(=O)/C=C/c2cc(-c3cc(OC)c(OC)c(OC)c3)n[nH]2)cc(OC)c1OC
Response line: 99

Prompt line: // lookup growth at 1 µM | system=HCC 2998 | key= COc1cc(-c2cc(/C=C/C(=O)c3ccc(F)c(F)c3)[nH]n2)cc(OC)c1OC
Response line: 99

// data source = ChEMBL document CHEMBL4138123
